Molecular target: 5-HT2A receptors (UniProt P14842)
readout label: log10(IC50) (log10 of the value in nM)
# values: log10(IC50), units nM

// returns log10(IC50) for CN(C)C1CCN(Cc2cnn(-c3ccc(-c4ccc(F)cc4)cc3)c2-c2ccco2)C1 (centres unmarked) with 5-HT2A receptors (UniProt P14842); value = 0.49

====

For reference, IC50 measured on 5-HT2A receptors (UniProt P14842):
Give your result in µM as a bare value.

Answered examples (2):
CCN(CC)Cc1cnn(-c2ccc(-c3ccc(OC)cc3)cc2)c1-c1ccco1
0.026
CN1CCN(Cc2cnn(-c3ccc(-c4ccc(F)cc4)cn3)c2-c2ccco2)CC1
0.02

5-HT2A receptors (UniProt P14842) data for COc1ccc(-c2ccc(-n3ncc(CN(C)C)c3-c3ccco3)cc2)cc1 ; its IC50: 0.0038

Case CCC(CO)NCc1cnn(-c2ccc(-c3ccc(F)cc3)cc2)c1-c1ccco1 (stereo not shown) , 5-HT2A receptors (UniProt P14842), IC50 recorded as 0.047

====

Molecular target: 5-HT2A receptors (UniProt P14842)
pIC50: −log10 of the molar value.
Assign 1 whenever pIC50 does not fall below 8; assign -1 whenever it does.

Illustrative cases are given below, each with its answer.
Fc1cccc(-c2ccc(-n3ncc(CN4CCN(C5CCCC5)CC4)c3-c3ccco3)cc2)c1
-1
Fc1ccc(-c2ccc(-n3ncc(CN4CCN(C5CCCC5)CC4)c3-c3ccco3)cc2)cc1
1
CCN1CCN(Cc2cnn(-c3ccc(-c4ccc(F)cc4)cc3)c2-c2ccco2)CC1
1
NC1CCN(Cc2cnn(-c3ccc(-c4cccc(F)c4)cc3)c2-c2ccco2)CC1
-1
CN(C)Cc1cnn(-c2ccc(-c3ccc4c(c3)OCO4)cc2)c1-c1ccco1
1
Fc1ccc(-c2ccc(-n3ncc(CN4CCN(CCN5CCCC5)CC4)c3-c3cccc(Cl)c3)cc2)cc1
-1
c1coc(-c2c(CN3CCNCC3)cnn2-c2ccc(-c3ccc4c(c3)OCCO4)cc2)c1
-1
CN1CCN(Cc2cnn(-c3ccc(-c4ccc(F)cc4)cc3)c2-c2cccc(Cl)c2)CC1
-1
CC(C)(C)OC(=O)N1CCN(Cc2cnn(-c3ccc(-c4cccc(F)c4)cc3)c2-c2ccco2)CC1
-1
CN1CCN(Cc2cnn(-c3ccc(-c4ccc5c(c4)OCCO5)cc3)c2-c2ccco2)CC1
1

query: Does the compound NC1CCN(Cc2cnn(-c3ccc(-c4ccc5c(c4)OCO5)cc3)c2-c2ccco2)CC1 have recorded pIC50 that is 8 or more?
result: -1

query: Decide: pIC50 of CCCN1CCN(Cc2cnn(-c3ccc(-c4ccc(F)cc4)cc3)c2-c2ccoc2)CC1 >= 8?
result: -1

====

Molecular target: UniProt P14842
Please map values of IC50 to classes as shown: lo: < 10 nM; mid: ≥ 10 nM and < 40 nM; hi: ≥ 40 nM

Sample answers from the record:
CN1CCN(Cc2cnn(-c3ccc(-c4ccc(F)cc4)cc3)c2-c2ccncc2)CC1
mid
CN1CCN(Cc2cnn(-c3ccc(-c4cccn4C(=O)OC(C)(C)C)cc3)c2-c2ccccc2F)CC1
hi
Fc1cccc(-c2ccc(-n3ncc(CN4CCNCC4)c3-c3ccco3)cc2)c1
lo

Let's switch to this compound now.
query: Quick check: band for CCN(CC)CCCNCc1cnn(-c2ccc(-c3ccc(F)cc3)cc2)c1-c1ccco1
result: mid
